Reference source: PubChem BioAssay (NCI)

test system: A498 renal; assay: NCI tumour cell line growth inhibition, 48 h
Where a SMILES comes first, the peptide text is derived from it. The star is where a group is joined. Boc = CC(C)(C)OC(=O)*
Mark F for TGI values under 20 µM, and T for everything at or above.

| Molecule | Target system | Group label |
| --- | --- | --- |
| COC(=O)C1=Cc2c(OC)cc(OC)c(OC)c2[C@H](c2cc(OC)c(OC)cc2OC)C1C(=O)OC (stereo not given in full) | A498 renal | T |
| Oc1ccc2ccccc2c1Cc1c(O)ccc2ccccc12 | A498 renal | T |
| COc1cccc(Nc2nccc(Nc3ccc4[nH]ncc4c3)n2)c1 | A498 renal | F |
| COc1ccc(-c2cncn2-c2cc(OC)c(OC)c(OC)c2)cc1F | A498 renal | T |
| C[C@@H](Oc1cc(-c2cnn(C3CC4(CCCNC4)C3)c2)cnc1N)c1c(Cl)ccc(F)c1Cl (stereo not given in full) | A498 renal | F |
| CCOC(=O)C(CC(C)C)NC(=O)C(Cc1ccccc1)NC(=O)CNC(=O)OC(C)(C)C (stereo not drawn) (Boc-Gly-Phe-Leu-OEt; configuration not given here) | A498 renal | T |
| ClC1=C(Cl)C(Cl)=C(Cl)C1=Cc1ccc(Cl)cc1 | A498 renal | F |
| COc1cc(NCc2ccc3n2-c2ccccc2OC3)cc(OC)c1OC | A498 renal | T |
| CC(C)c1cccc(C(C)C)c1NC1=CC(=O)C(=O)c2ccccc21 | A498 renal | T |
| CCS/C(Nc1ccccc1)=C(\C#N)C(=O)N/N=C/c1ccc(Cl)cc1Cl | A498 renal | T |

----------
Listed compounds paired with reported TGI
tested on: HCC-2998 colon; assay: NCI tumour cell line growth inhibition, 48 h
Readout type: TGI

| Compound | Target system | Readout type | Measured value |
| --- | --- | --- | --- |
| CC(=O)O/C=C\OC1CCCC1 | HCC-2998 colon | TGI | > 100 µM |
| c1ccc2nc3cc4c(cc3nc2c1)NC12CCCCC1CC1=C(CCCC1)N42 (stereo unspecified) | HCC-2998 colon | TGI | > 10 µM |
| COc1nc2c(c(=O)n1C)NC(C(O)C(O)CO)C=N2 (stereo unspecified) | HCC-2998 colon | TGI | > 10 µM |
| COc1ccc(-n2sc(=O)n(Cc3ccc(COC(=O)C(C)c4ccc(CC(C)C)cc4)cc3)c2=O)cc1 (stereo unspecified) | HCC-2998 colon | TGI | 17.2 µM |
| N#CSCC(=O)c1ccc(Cl)cc1 | HCC-2998 colon | TGI | 27.8 µM |
| N#CC12Cc3ccc4c(c3-c3cccc(c31)CCN2C(=O)c1ccccc1)OCO4 (stereo unspecified) | HCC-2998 colon | TGI | > 100 µM |

----------
system: SK-MEL-2 melanoma; test: NCI tumour cell line growth inhibition, 48 h; in the data active means GI50 below about 0.43 µM; inactive means the rest
Outcome codes: label 1 = active, label 0 = inactive

| Compound | Group label |
| --- | --- |
| C[C@@H](Oc1cc(-c2cnn(C3CC4(CCCNC4)C3)c2)cnc1N)c1c(Cl)ccc(F)c1Cl (stereo not given in full) | label 0 |
| CSc1ccc(C2=NN(C(=O)c3ccc(N)cc3)C(c3ccc(F)cc3)C2)cc1 (stereo not given) | label 0 |
| CC(=O)OCC(=O)C1(O)C(C)CC2C3C=C(C)C4=Cc5c(cnn5-c5ccccc5)CC4(C)C3C(O)CC21C (stereo not given) | label 0 |
| CS[C@@]1(C(=O)Nc2ccc3[nH]nc(-c4ccc(OC(C)C)nc4)c3c2)CCN(CC(=O)N2CC=C(c3ccc(-c4ncn(C)n4)cc3)CC2)C1 | label 1 |
| N#Cc1c(Oc2ccc(F)c(NC(=O)Cc3cccc(C(F)(F)F)c3)c2)ccc2nc(NC(=O)C3CC3)sc12 | label 1 |
| CC1(C)CC2CC(C)(CN2c2ncnc3ccc(Br)cc23)C1 (stereo not given) | label 0 |
| CC[C@@]1(OC(=O)CN)C(=O)OCc2c1cc1n(c2=O)Cc2cc3c(N)c4c(cc3nc2-1)OCO4 | label 1 |
| CNCCOc1nc2c3cnccc3cc(-c3cc(OC)c(OC)c(OC)c3)c2c2ccncc12 | label 1 |
| CON | label 0 |
| Cc1ccc(-c2cc(/C=N/O)on2)cc1 | label 0 |
| CN(NC(=O)CC(=O)NN(C)C(=S)c1ccc(Cl)cc1)C(=S)c1ccc(Cl)cc1 | label 0 |
| CC(=O)/C=C/C1=C(c2ccsc2)c2ccccc2CC1 | label 0 |
| CN1CCN(c2ccc3nc4c(nc3c2C(F)(F)F)C(=O)c2ncccc2C4=O)CC1 | label 0 |
| O=[N+]([O-])c1ccc(-c2ccccc2)c([As](=O)(O)O)c1 | label 0 |
| C/C(=N\Nc1cccc(Cl)n1)c1ccccn1 | label 0 |
| CC(C)[O-].CC(C)[O-].[O-]c1cccc2cccnc12.[O-]c1cccc2cccnc12.[Ti+4] | label 0 |
| CN(C)CCOc1nc2ccccc2c2c1-c1ccc(Cl)cc1C2=O | label 0 |
| N#CC(C#N)=Cc1ccc(-c2ccc(-c3nc4ccccc4o3)cc2)o1 | label 0 |
| Cc1cccnc1CNC1CC(NCc2ncccc2C)CC(NCc2ncccc2C)C1 (stereo not given) | label 0 |
| Cc1sc(/N=C2/NC(=O)CS2)nc1-c1nc(/N=C2/NC(=O)CS2)sc1C | label 0 |

----------
tested on: SK-MEL-2 melanoma; assay: NCI tumour cell line growth inhibition, 48 h

| Compound | TGI |
| --- | --- |
| O=C(NNC(=O)c1ccccc1Cl)c1ccccc1O | > 100 µM |
| C=C1C(=O)OC2CC3(C)OC3C3OC3C3=CC(OC3=O)C12 (stereo not given) | 36.4 µM |
| Cc1cc2c(cc1C)[n+]([O-])c(-c1c(Cl)cccc1Cl)c(N)[n+]2[O-] | > 100 µM |
| c1ccc2nc3cc4c(cc3nc2c1)NC12CCCCC1CC1=C(CCCC1)N42 (stereo not given) | 9.53 µM |
| NNC(=S)N/N=C/C(Cl)=C(\Cl)C(=O)O | > 100 µM |
| N#CC(C#N)=Cc1ccc(-c2ccc(-c3nc4ccccc4o3)cc2)o1 | > 100 µM |
| CC(C)[O-].CC(C)[O-].[O-]c1cccc2cccnc12.[O-]c1cccc2cccnc12.[Ti+4] | > 100 µM |
| O=C1C2Nc3ccccc3SC2C(=O)N1c1cccc([N+](=O)[O-])c1 (stereo not given) | > 100 µM |
| CC(=O)NNc1nc(C)c(C(/C=C/c2ccc(NC(C)=O)cc2)=N/NS(=O)(=O)c2ccc(C)cc2)s1 | > 100 µM |
| CC(C)NC(=O)O/N=C1\CCC2[C@@H]3CC=C4C[C@@H](OC(=O)NC(C)C)CC[C@]4(C)C3CC[C@]12C (stereo not given in full) | 2.9 µM |

----------
tested on: MDA-MB-435
Outcome codes: yes for active, no for inactive

| Molecule | Group label |
| --- | --- |
| CS[C@@]1(C(=O)Nc2ccc3[nH]nc(-c4ccc(OC(C)C)nc4)c3c2)CCN(CC(=O)N2CC=C(c3ccc(-c4ncn(C)n4)cc3)CC2)C1 | yes |
| CC(=O)OCC(=O)C1(O)C(C)CC2C3C=C(C)C4=Cc5c(cnn5-c5ccccc5)CC4(C)C3C(O)CC21C (stereo not drawn) | no |
| CCCCCCC1N=C(N)N=C(N)N1c1ccc(Cl)cc1 (stereo not drawn) | no |
| CN1CCN(c2ccc3nc4c(nc3c2C(F)(F)F)C(=O)c2ncccc2C4=O)CC1 | yes |
| CCOC(=O)C(Cc1ccc(OC)cc1)C(=O)OCC | no |
| COc1ccc(NC(=O)O[C@H]2[C@H](O[C@H]3[C@@H](O)COC(O[C@H]4C[C@H]5[C@@H]6CC=C7C[C@@H](O)CC[C@]7(C)[C@H]6CC[C@]5(C)[C@H]4[C@H](C)C(=O)CCC(C)C)[C@@H]3OC(C)=O)OC[C@@H](O)[C@@H]2O)cc1 (stereo partly drawn) | yes |
| Cc1ccc(-c2cc(/C=N/O)on2)cc1 | no |
| COC(=O)Nc1nc2ccc(Sc3ccccc3)cc2[nH]1 | yes |

----------
Listed compounds paired with reported TGI
test system: U251 CNS; test: NCI tumour cell line growth inhibition, 48 h
Readout type: TGI (µM)

| Compound | Target system | Qualifying sign | Measured value |
| --- | --- | --- | --- |
| C1=c2ccccc2=C2C(=C(c3ccccc3)C(c3ccccc3)=NN2c2ccccc2)S1 | U251 CNS | > | 100 |
| CCCCCc1c(C)[nH]c(/C=c2\[nH]/c(=C3/C=c4ccccc4=N3)cc2OC)c1C | U251 CNS | = | 0.627 |
| COc1cc2c3c(c1O)C1(C=CC(=O)C=C1)CC3N(C)CC2 (stereo not given) | U251 CNS | = | 15.4 |
| NC(=O)C(=CN1CC(=O)NC1=S)C(N)=O | U251 CNS | > | 100 |
| Cc1cc(=O)[nH]c2c3c(ccc12)OC(C)(C)C=C3 | U251 CNS | > | 47.4 |
| Cc1cc(Br)cc(C)c1NC(=O)C(=O)C1C(=O)C(CC2C(=O)c3ccccc3C2=O)C(=O)CC1(C)C (stereo not given) | U251 CNS | > | 100 |
| COC(=O)CCc1ccc2c(c1)CC1(C2)Cc2ccc3c(c2C1)CCC3 (stereo not given) | U251 CNS | > | 100 |
| CCCCOc1ccc(S(=O)(=O)/N=C(\NN)Nc2ccc(Cl)cc2)cc1 | U251 CNS | = | 30.2 |
| CC1=NN(c2ccccc2)C(=O)C1=C1SCCCS1 | U251 CNS | = | 37.4 |
| CCOC(=O)c1c(N2CCOCC2)[nH]c(=O)c(C(c2ccc(Cl)c([N+](=O)[O-])c2)c2c(O)c(C(=O)OCC)c(N3CCOCC3)[nH]c2=O)c1O | U251 CNS | = | 41.9 |
